system: K4 kissing-loop RNA reporter; test: apparent KD of K4 kissing-loop reporter; higher = weaker reporter binding; settings: Eterna round: R107; input ligand: arginine 13.2 mM
READOUT_NAME: apparent KD of K4 kissing-loop reporter (nM)
Give your result in nM as a bare value.

Form field: reported apparent KD of K4 kissing-loop reporter of CGCCGCAAGGCGAGCGCUCCCACUCCGGAAGGAGCGCCCGCAAGGGCAGGUAGGUCGCCGGAGUGAUGUUCCGGUGGAGGGCUCG [#2 Exclusion - Arginine A Attempt #15 (Inspired by Omei)]
207

Form field: reported apparent KD of K4 kissing-loop reporter of AGUGAUGUUGUGUUAUGUUAGUGAAGUGAUCGAGGACCGGUACGGCCGCCACUCGAGUGAUGAGUGAGUGAUGUUUGUUUAGGGA [popmullin]
674

Form field: reported apparent KD of K4 kissing-loop reporter of AGGAUCACGUCAGUGAUGUUGACGAGAGAUACCAGAGACGAAAGUCUCCCUUGGCAGCUCAUCGUGAUCCGUGACAAAGGUCACA [Omei KL hio A SS C v4]
203

Form field: reported apparent KD of K4 kissing-loop reporter of AGGCACGAGCAAGGAUAUCGAGUAGAGUGAUGUUCUGCCUGGGUUGGCUCGGAAGAGCCUUCUCAGCGAGAAGGUGCUCGUGCCU [#2 Same State - FMN A Attempt #19 (HarryS)]
604

Form field: reported apparent KD of K4 kissing-loop reporter of AUAUCUGUUCGAAAGAACGGAUCUUCGGAAGGAGCGCGUGAAAACGCAGGUAGGUCGCCGAAGUUAUUAGGUAGUGAUGUUACCU [Arginine A K4 7]
96.4

Form field: reported apparent KD of K4 kissing-loop reporter of AGUGUUAGGUUAGAUACCAGCCGUUCGUGAAUAGUCUUCGAACCGCCAGUGAUGUUGGCAGGCCCUUGGCAGCUAACAGAACAGA [Lagelare]
199

Form field: reported apparent KD of K4 kissing-loop reporter of CGCAGUGAUGUUGCGAGUAGCUACAGGGAAGGAGCGUGCUAGAGCACAGGUAGGUCGCCCACGCAGUGAUGUUGUGUCAAAGGGU [Exclusion Arginine A GF 11]
168

Form field: reported apparent KD of K4 kissing-loop reporter of AUUUUUUUGUCAGGAUAUUAGUGUUGGUUUGGUUUGUUAGUGAUGUUGAUAUUUGUUUUAUGUAUUUAAGAAGGGAUUUAGCUGU [ppdemullin]
359

Form field: reported apparent KD of K4 kissing-loop reporter of AUUUGUUACCUUAUAGGAGUGAUGUUCUUGCGAGGACCGGUACGGCCGCCACUCGCGCUGGCGCCUAGCCUCGGACCGUUAAUUC [theeternabot_exclusion_KL_Trp_A_25]
325

Form field: reported apparent KD of K4 kissing-loop reporter of GCGCGCGGCGGAGGAUAUAGCAGGUGAUCCGAGAAAGUGAGUGAUGUUUACGGAGAUGAUGAUAUGUUAGAAGGCCGCCGCGCGC [abcdefghijklmnopqrstuv]
416

Form field: reported apparent KD of K4 kissing-loop reporter of AAUAGGGAUAGUGAUGUUAUCCCUUAUGAUACCAGUGCCAUCGGACACCCUUGGCAGCAUACGGGCAGUGAUGUUGUCCUUGGUG [Exclusion Theophylline A GF 16]
94

====

Consider the following sequences; for each one, report its apparent KD of MS2 coat protein.
tested on: MS2 coat protein; experiment: apparent KD of MS2 coat protein; higher = weaker reporter binding; conditions: Eterna round: R107; input ligand: tryptophan 2.4 mM
Give your result in nM as a bare value.

Form field: reported apparent KD of MS2 coat protein of AAUGGUGGAACGAAGUACAGGAGUACAAAUCGAGGACCGGUACGGCCGCCACUCGCGAAAGAACAUGAGGAUCACCCAUGUAAAA [theeternabot_exclusion_MS2_Trp_A_34]
11.1

Form field: reported apparent KD of MS2 coat protein of GACGGUACGUCGGCAAAGCCGAUGUGCCAGCGAGGACCGGUACGGCCGCCACUCGUACAUGAGGAUCACCCAUGUCCGGUCCGUC [Omei Trp SS A C v3]
129

Form field: reported apparent KD of MS2 coat protein of UCGACGAUGACCAAAGGUCAGGAGUACGUACGAGGACCGGUACGGCCGCCACUCGAGGAGUGGGACAUGAGGAUCACCCAUGUGG [#20 Exclusion Tryptophan A]
37.4

Form field: reported apparent KD of MS2 coat protein of ACAUGAGGAUCACCCAUGUUCCUCAUUGAUACCAGUGAAUUUAGACGCCCUUGGCAGCGAGUUUAAGAAGAAGAAGUUUUUUUUU [6.C]
875

Form field: reported apparent KD of MS2 coat protein of AUGUUGGUCUGAAGGAGCGCGAUAACAUGAGGAUCACCCAUGUUAAAUGGUACAUGAUACUCGCAGGUAGGUCGCAGUACGACAA [Same State Arginine B GF 13]
25.1

Form field: reported apparent KD of MS2 coat protein of AGAGAUGAACAUGAGGAUCACCCAUGUAAACGAGGACCGGUACGGCCGCCACUCGUGGGUGUAAUAGAAUAAUAAGAGAAUAAUA [Turkey 1]
75.5

====

test system: MS2 coat protein; experiment: apparent KD of MS2 coat protein; designed switch direction (-1 OFF switch, 1 ON switch): 1; higher = weaker reporter binding; details: input ligand: none
Consider the following sequences; for each one, report its apparent KD of MS2 coat protein.
Give your result in nM as a bare value.

Form field: reported apparent KD of MS2 coat protein of GUGGAGAAUUAAGGAUAUCGAGUCAAGAUGUUAAACAUGAGGAUCACCCAUGUGGGUUGCGGUAUCGAGAAGGUAAUUUACGGG [salish99_SSNG2_r04_505] (Eterna round: R96, puzzle: Same State NG 2)
36.8

Form field: reported apparent KD of MS2 coat protein of UGGUACAUGGGAGGAUAUCAUGUAGAAACAUGAGGAUCACCCAUGUAGAUGGCCGGUAACCGGAAUGAGAAGGCCCAUGUACCU [JL SSNG1 3.63] (Eterna round: R96, puzzle: Same State NG 2)
30.6

Form field: reported apparent KD of MS2 coat protein of CCGCCGGGAACCCGGCGAAAACAUGAGGAUCACCCAUGUACACAGGAUAUCGUGACAUUAACAAACGAGAAGGGUGGCCGAGAC [Lelateen] (Eterna round: R96, puzzle: Same State NG 3)
182

====

system: K4 kissing-loop RNA reporter; experiment: apparent KD of K4 kissing-loop reporter; higher = weaker reporter binding; conditions: Eterna round: R107; input ligand: none;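 note: bound reporter read as fluorescence of individual clusters on recovered sequencing chips by microscopy, with normalized cluster intensities fitted with a binding model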
Label Criterion met when apparent KD of K4 kissing-loop reporter is at or above 500 nM; otherwise label Criterion not met.

Is apparent KD of K4 kissing-loop reporter at least 500 nM? Consider AAUUUAUGAUCUGAUACCAGACUUUAUCUUGUUUAUAAGUCAAGUGAUGUUUGACUAUUAGUCCCUUGGCAGCAGUAUUGUUUAA [#17 K4 Theophylline B Same State]
Criterion not met

Is apparent KD of K4 kissing-loop reporter at least 500 nM? Consider GGAUAGGACAGAGGAUAUGGUAGUGAUGUUACCAACAGCCUACUGUCAAUAAAGACGGUUGGCUGACCAGAAGGCUGUCCUAUCG [Mod of Eli's FmnBX 26 v1]
Criterion not met

Is apparent KD of K4 kissing-loop reporter at least 500 nM? Consider CGUGAGGACCUGAGGUGAUGUAUAGUAUCGCGAGGACCGGUACGGCCGCCACUCGUGAAGAGAAAGGAGUGAUGUUCCGUAAGGG
Criterion not met

Is apparent KD of K4 kissing-loop reporter at least 500 nM? Consider AUUAAUUUCAGAGGAUAUGCUUUAUUAUUAUUUUUAAAUAAUAAAUGCAGUGAUGUUGCUUAUUAUGCAGAAGGCUGAUUUAUAA [JR_SSFMNB_Sub014]
Criterion met

Is apparent KD of K4 kissing-loop reporter at least 500 nM? Consider GAUCCAUGACAAGGAUAUUCGCCAACGGUGCCGGAGUGAUGUUCUGCACAACAGACUACAAGUAAGGAAGAAGGUGUCAGUUACC [theeternabot_sameState_KL_FMN_B_29]
Criterion met

Is apparent KD of K4 kissing-loop reporter at least 500 nM? Consider GCGUGCCAUGCAGGAUAUAGUUGUUCGAGUGAUGUUCGAGCCUUGCUAAGUUCGGAGCAUCAGCUUCUAGAAGGGCAUGGCACGC
Criterion met

====

tested on: MS2 coat protein; assay: apparent KD of MS2 coat protein; higher = weaker reporter binding; details: Eterna round: R107; input ligand: theophylline 20 uM
READOUT_NAME: apparent KD of MS2 coat protein (nM)
Give your result in nM as a bare value.

Form field: reported apparent KD of MS2 coat protein of GCCGGUACGUCGGCAAAGCCGAUGUGCCAGCGAGGACCGGUACGGCCGCCACUCGUACAUGAGGAUCACCCAUGUCCGGUCCGGC [Omei Trp SS A C v1]
62.5

Form field: reported apparent KD of MS2 coat protein of AAUUGCGUUGGUGAGGCGGUUAAUGGCGAUACCAGCGUGGAAACACGCCCUUGGCAGCGCCAAAACAUGAGGAUCACCCAUGUUA [Liberec]
149

Form field: reported apparent KD of MS2 coat protein of UGUAUGUGAUCUGAUACCAGACGUGUAAACCUGAGGAUCACCCUGGUAAGGCGAAAGCCAGUCCCUUGGCAGCAGAUCGCAUACU
40

Form field: reported apparent KD of MS2 coat protein of ACACGGAAUGAUGGAUCACCUCGUGAAUCACGAGGACCGGUACGGCCGCCACUCGAAAACCGUGACCUGUACGAAAAGUGCAGGA
232

Form field: reported apparent KD of MS2 coat protein of GACAGAAACUGAAGGAGCGAGGUAAAACGGGAUGAGCAAACAUGAGGAUCACCCAUGUGGCCUCAGGUAGGUCGCAGAAAGAAAC [Exclusion Arginine B GF24]
183

Form field: reported apparent KD of MS2 coat protein of AAGUGGCACGGAAGGAGCGAGUUUGCCUAUUACAUGAGGAUCACCCAUGUGGGUAAUGGGACUCAGGUAGGUCGCCGUUGUCACU [Same State Arginine B GF 26]
48.5

Form field: reported apparent KD of MS2 coat protein of CACUAUGAGGUCGAUACCAGUACUGAGUUGUACAUGAGGAUCACCCAUGUAAAUGUUCGCUACCCUUGGCAGCGAUAACAUUGCA [theeternabot_sameState_MS2_Theo_B_34]
331

Form field: reported apparent KD of MS2 coat protein of GCCAUCGGCGGAAGCCGAUGGGAUACAGAAGGAGCGUAGGAAACUACAGGUAGGUCGCUGGACAUGAGGAUCACCCAUGUGAUAG [SSAA #11]
31.9

Form field: reported apparent KD of MS2 coat protein of AGCGUUCGGUUUAUGCCGGACAAUGGGUGACGAGGACCGGUACGGCCGCCACUCGGGCGCCCGGUUACAUGAGGAUCACCCAUGU [Oresrile]
190

Form field: reported apparent KD of MS2 coat protein of AUAUUACAUGUUAUUAUACGGUAUACUGAUACCAGUGUUUCUAUUCACCCUUGGCAGCAGCAACAUGAGGAUCACCCAUGUAUUA [JR_SSTheophyA_Sub018]
19

Form field: reported apparent KD of MS2 coat protein of AGUACUCGAACGGAUACCAGCCGGACAUGAGGAUCACCCAUGUCCUACCAUGUUUCGGUUGGCCCUUGGCAGCCGUUCGUGUACA [Omei Theo B SS A v1]
428

Form field: reported apparent KD of MS2 coat protein of AGAGUUAGACAAAAGUCUAGCUCACCAGAAGGAGCGUCCGAAAGGACAGGUAGGUCGCUGGUGCACGAGGAUCACCCGUGUUCCU [ArgAS 21 #OpenEnded #AlternativeMS2]
90.2

Form field: reported apparent KD of MS2 coat protein of ACUUUGUCGGGUGAUACCAGCCUCGGCACAUCUCGUGCCGAACAUGAGGAUCACCCAUGUGGCCCUUGGCAGCACAUGACAAAUC [Isredior]
522

Form field: reported apparent KD of MS2 coat protein of ACAUGAGGAUCACCCAUGUACAUGAGGGAAGGAGCGGUACAUGUGCCAGGUAGGUCGCCCAACAGCAUCAGCCAUGUACAUCAGC [ppsmullin]
117

Form field: reported apparent KD of MS2 coat protein of GGGCUUGUGGUGCGGCGUGUUCCGCUCCGUCGAGGACCGGUACGGCCGCCACUCGACAUGAGGAUCACCCAUGUGCGAGCGCGCG [#1 Exclusion - Tryptophan A Attempt #7 (HarryS)]
16.1

Form field: reported apparent KD of MS2 coat protein of ACGGAGAUUGCUAAAUGUUGGCGAGCGGAUACCAGCCUAUAAUCGGGCCCUUGGCAGCCGACAUGAGGAUCACCCAUGUAAACAA [Gelelaor]
98.9

Form field: reported apparent KD of MS2 coat protein of AACUAAUCACAUGAGGAUCACCCAUGUGAUACCAGCUAAUCCCAAAGCCCUUGGCAGCACCUUUGGGUCCCGGUGUGUUUGAACA [Onceesa]
12.3

Form field: reported apparent KD of MS2 coat protein of CCAUACGUAACUGAUACCAGUGUACUGACAUGAGGAUCACCCAUGUUGGGUUUUGUUGUACACCCUUGGCAGCAGAAUCGUAUGG [AstrosExyTheB#19]
65.1

Form field: reported apparent KD of MS2 coat protein of GAGUAGUAGACGGCCGCCACUAAACAUGAGGAUCACCCAUGUAGUGAUCCGUUACCUAGCGUAGAUAGGACCGGGUCAGAUAGUA [Exclusion Tryptophan B GF 14]
31.7

Form field: reported apparent KD of MS2 coat protein of AGAAGUCCAGACUACACGUGGAAAAGCGAUACCAGACUCAUAGGUGUCCCUUGGCAGCGCGUAACAUGAGGAUCACCCAUGUGAU [theeternabot_exclusion_MS2_Theo_A_9]
190

Form field: reported apparent KD of MS2 coat protein of CGAACAUGAGGAUCACCCAUGUUAACCGAAGGAGCGGCGCAUAAGUCAGGUAGGUCGCGGUAGAUGAAAUAGAGCAGUGGUGACA [#01 Same State - Arginine A]
45

Form field: reported apparent KD of MS2 coat protein of UCAUGCAGGUCGGCCGCCACUACACACAUGAGGAUCACCCAUGUAGUUACUGGGUGAAGUGGCAGUAGGACCGGGACCUGCAUAU [Brourdmod08]
664

Form field: reported apparent KD of MS2 coat protein of AGAUUCGACACGGCCGCCACUUGUGGUGGAGGGUCUUUAGUCACACAUGAGGAUCACCCAUGUACAAGGACCGGGUGUUGAGUCU [XTryp B #23]
14.2
